Molecular target: BRD4 (BRD4A) (Homo sapiens, UniProt O60885)
Construct: purchased in-house DSF kinase panel (SGC-style construct names; the trailing letter is the construct ID)
Assay: DSF Tm panel
Format: binding
Conditions: 10 μM compound
quantity name: ΔTm at 10 µM (°C)

[Q] Which ΔTm at 10 µM value is on record for `COc1ccc(CNC(=O)Nc2ccc3cc2OCCOCCNc2ccn4ncc-3c4n2)cc1F` ?
[A] 1.2

[Q] What do you get for `Cc1cc(Br)ccc1CNC(=O)Nc1ccc2cc1OCCOCCNc1ccn3ncc-2c3n1` ?
[A] 1.4

[Q] What do you get for `O=C(NCc1ccccc1Cl)Nc1ccc2cc1OCCOCCNc1ccn3ncc-2c3n1` ?
[A] 1.3

[Q] What do you get for `O=C(NCc1ccc(Cl)cc1)Nc1ccc2cc1OCCOCCNc1ccn3ncc-2c3n1` ?
[A] 1

(1) COc1cccc(CNC(=O)Nc2ccc3cc2OCCOCCNc2ccn4ncc-3c4n2)c1
(2) O=C(NCc1ccccc1C(F)(F)F)Nc1ccc2cc1OCCOCCNc1ccn3ncc-2c3n1
[Q] Could you kindly indicate whether 1 or 2 has the higher ΔTm at 10 µM value? When you have decided, please share the label of that item.
[A] 2
(2: 1.8 °C, 1: 0.1 °C)

----------
Target: BMP2KA (Homo sapiens, UniProt Q9NSY1)
Construct: purchased in-house DSF kinase panel (SGC-style construct names; the trailing letter is the construct ID)
Sequence (Q9NSY1 38-345): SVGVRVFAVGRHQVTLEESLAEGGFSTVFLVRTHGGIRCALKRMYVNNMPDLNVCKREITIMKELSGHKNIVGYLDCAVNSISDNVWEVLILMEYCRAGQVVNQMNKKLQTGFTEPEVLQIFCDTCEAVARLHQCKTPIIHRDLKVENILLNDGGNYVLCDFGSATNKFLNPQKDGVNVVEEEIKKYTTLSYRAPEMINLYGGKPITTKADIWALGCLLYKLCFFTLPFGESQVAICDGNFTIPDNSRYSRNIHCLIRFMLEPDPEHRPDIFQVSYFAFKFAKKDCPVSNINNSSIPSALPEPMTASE
Test: DSF Tm panel
Type: binding
Conditions: 10 μM compound
quantity name: ΔTm at 10 µM (°C)

[Q] Which ΔTm at 10 µM value is on record for Cc1cc(Br)ccc1CNC(=O)Nc1ccc2cc1OCCOCCNc1ccn3ncc-2c3n1 [compound 24] ?
[A] 6.7

[Q] What do you get for C[C@H](NC(=O)Nc1ccc2cc1OCCOCCNc1ccn3ncc-2c3n1)c1ccccc1 [compound 34] ?
[A] 9.1

[Q] What do you get for CN1CCN(C(=O)Nc2ccc3cc2OCCOCCNc2ccn4ncc-3c4n2)CC1 [compound 35] ?
[A] 11.8

[Q] What do you get for COc1ccc(CNC(=O)Nc2ccc3cc2OCCOCCNc2ccn4ncc-3c4n2)cc1 [compound 31] ?
[A] 12

[Q] What do you get for COc1ccccc1CNC(=O)Nc1ccc2cc1OCCOCCNc1ccn3ncc-2c3n1 [compound 29] ?
[A] 8.3

[Q] What do you get for O=C(NCc1ccccc1Cl)Nc1ccc2cc1OCCOCCNc1ccn3ncc-2c3n1 [compound 17] ?
[A] 9.2

----------
Target: STK17AA (Homo sapiens, UniProt Q9UEE5)
Construct: purchased in-house DSF kinase panel (SGC-style construct names; the trailing letter is the construct ID)
Sequence (Q9UEE5 61-321): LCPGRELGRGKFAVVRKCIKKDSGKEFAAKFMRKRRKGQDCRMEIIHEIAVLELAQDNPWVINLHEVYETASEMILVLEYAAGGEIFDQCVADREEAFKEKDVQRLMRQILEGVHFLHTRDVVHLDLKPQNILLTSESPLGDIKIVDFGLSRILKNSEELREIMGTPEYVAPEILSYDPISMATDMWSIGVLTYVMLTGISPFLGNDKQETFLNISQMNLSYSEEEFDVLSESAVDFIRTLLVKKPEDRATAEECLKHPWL
Assay: DSF Tm panel
Assay type: binding
Details: 10 μM compound
quantity name: ΔTm at 10 µM (°C)

Some entries whose results are on file:
[Q] Find the measured ΔTm at 10 µM: item O=C(NCc1ccccc1)Nc1ccc2cc1OCCOCCNc1ccn3ncc-2c3n1 [compound 16] , target or system STK17AA (Homo sapiens, UniProt Q9UEE5).
[A] 4.9

[Q] What do you get for Cc1cc(Br)ccc1CNC(=O)Nc1ccc2cc1OCCOCCNc1ccn3ncc-2c3n1 [compound 24] ?
[A] 2.3

[Q] What do you get for COc1ccc(CNC(=O)Nc2ccc3cc2OCCOCCNc2ccn4ncc-3c4n2)cc1F [compound 32] ?
[A] 5.3

[Q] What do you get for C[C@H](NC(=O)Nc1ccc2cc1OCCOCCNc1ccn3ncc-2c3n1)c1ccccc1 [compound 34] ?
[A] 6

(A) COc1ccc(CNC(=O)Nc2ccc3cc2OCCOCCNc2ccn4ncc-3c4n2)cc1 [compound 31]
(B) CN1CCN(C(=O)Nc2ccc3cc2OCCOCCNc2ccn4ncc-3c4n2)CC1 [compound 35]
(C) COc1cc(CNC(=O)Nc2ccc3cc2OCCOCCNc2ccn4ncc-3c4n2)ccc1F [compound 33]
(D) COc1ccccc1CNC(=O)Nc1ccc2cc1OCCOCCNc1ccn3ncc-2c3n1 [compound 29]
[Q] Rank order required: ΔTm at 10 µM, descending. Put the labels in the requested order and write them down.
[A] C, A, D, B
(C: 7.6 °C, A: 5.1 °C, D: 3.1 °C, B: 1.7 °C)

----------
Target: DYRK1AA (Homo sapiens, UniProt Q13627)
Construct: purchased in-house DSF kinase panel (SGC-style construct names; the trailing letter is the construct ID)
Assay: DSF Tm panel
Assay type: binding
Conditions: 10 μM compound
quantity name: ΔTm at 10 µM (°C)

(1) O=C(NCc1ccc(C(F)(F)F)cc1)Nc1ccc2cc1OCCOCCNc1ccn3ncc-2c3n1 [compound 28]
(2) Cc1cc(Br)ccc1CNC(=O)Nc1ccc2cc1OCCOCCNc1ccn3ncc-2c3n1 [compound 24]
(3) COc1ccc(CNC(=O)Nc2ccc3cc2OCCOCCNc2ccn4ncc-3c4n2)cc1F [compound 32]
(4) O=C(NCc1ccccc1)Nc1ccc2cc1OCCOCCNc1ccn3ncc-2c3n1 [compound 16]
[Q] Order the 4 listed items from lowest to highest according to ΔTm at 10 µM. Put the labels in the requested order and write them down.
[A] 2, 3, 1, 4

----------
Target: MAPK9A (Homo sapiens)
Construct: purchased in-house DSF kinase panel (SGC-style construct names; the trailing letter is the construct ID)
Sequence (P45984 7-364): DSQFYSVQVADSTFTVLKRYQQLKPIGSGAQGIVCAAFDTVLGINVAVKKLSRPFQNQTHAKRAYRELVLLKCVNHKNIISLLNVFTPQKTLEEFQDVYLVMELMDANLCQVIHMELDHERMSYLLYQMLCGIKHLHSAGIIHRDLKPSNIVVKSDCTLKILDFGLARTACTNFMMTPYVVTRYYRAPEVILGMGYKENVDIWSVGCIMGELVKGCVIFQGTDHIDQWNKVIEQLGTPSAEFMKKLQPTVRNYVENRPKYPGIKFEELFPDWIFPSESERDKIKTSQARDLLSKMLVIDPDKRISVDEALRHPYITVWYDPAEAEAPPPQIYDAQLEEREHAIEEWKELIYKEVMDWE
Test: DSF Tm panel
Assay type: binding
Details: 10 μM compound
quantity name: ΔTm at 10 µM (°C)

Some entries whose results are on file:
[Q] Which ΔTm at 10 µM value is on record for `C[C@H](NC(=O)Nc1ccc2cc1OCCOCCNc1ccn3ncc-2c3n1)c1ccccc1` ?
[A] -2

[Q] What do you get for `O=C(NCc1ccc(Cl)cc1Cl)Nc1ccc2cc1OCCOCCNc1ccn3ncc-2c3n1` ?
[A] 1.5

[Q] What do you get for `Cc1ccc(F)cc1CNC(=O)Nc1ccc2cc1OCCOCCNc1ccn3ncc-2c3n1` ?
[A] -1.6

(I) Cc1cc(Cl)ccc1CNC(=O)Nc1ccc2cc1OCCOCCNc1ccn3ncc-2c3n1
(II) COc1ccccc1CNC(=O)Nc1ccc2cc1OCCOCCNc1ccn3ncc-2c3n1
[Q] Could you kindly indicate whether I or II has the higher ΔTm at 10 µM value? When you have decided, please share the label of that item.
[A] I
(I: 2 °C, II: -2.1 °C)

(P) O=C(NCc1ccc(C(F)(F)F)cc1)Nc1ccc2cc1OCCOCCNc1ccn3ncc-2c3n1
(Q) COc1cccc(CNC(=O)Nc2ccc3cc2OCCOCCNc2ccn4ncc-3c4n2)c1
(R) O=C(NCc1ccccc1Cl)Nc1ccc2cc1OCCOCCNc1ccn3ncc-2c3n1
[Q] Hey, can you sort those molecules up there by ΔTm at 10 µM, smallest first? Put the labels in the requested order and write them down.
[A] Q, P, R
(Q: -1.9 °C, P: -0.2 °C, R: 0.4 °C)

----------
Target: MAP2K1A (Homo sapiens)
Construct: purchased in-house DSF kinase panel (SGC-style construct names; the trailing letter is the construct ID)
Sequence (Q02750 68-361): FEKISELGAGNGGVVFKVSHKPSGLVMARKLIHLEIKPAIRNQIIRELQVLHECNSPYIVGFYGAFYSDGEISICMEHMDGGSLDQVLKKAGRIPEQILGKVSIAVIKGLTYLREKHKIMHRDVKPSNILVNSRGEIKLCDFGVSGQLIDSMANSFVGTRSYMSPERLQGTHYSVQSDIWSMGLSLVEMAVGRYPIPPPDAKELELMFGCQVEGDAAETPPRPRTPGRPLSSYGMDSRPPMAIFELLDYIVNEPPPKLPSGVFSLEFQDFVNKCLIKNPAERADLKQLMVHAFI
Test: DSF Tm panel
Format: binding
Conditions: 10 μM compound
quantity name: ΔTm at 10 µM (°C)

Some entries whose results are on file:
[Q] Which ΔTm at 10 µM value is on record for `COc1ccc(CNC(=O)Nc2ccc3cc2OCCOCCNc2ccn4ncc-3c4n2)cc1F` ?
[A] 0.7

[Q] What do you get for `Cc1cc(Cl)ccc1CNC(=O)Nc1ccc2cc1OCCOCCNc1ccn3ncc-2c3n1` ?
[A] 0.6

[Q] What do you get for `C[C@H](NC(=O)Nc1ccc2cc1OCCOCCNc1ccn3ncc-2c3n1)c1ccccc1` ?
[A] 0.7

[Q] What do you get for `O=C(NCc1ccccc1)Nc1ccc2cc1OCCOCCNc1ccn3ncc-2c3n1` ?
[A] -0.1

[Q] What do you get for `O=C(NCc1ccc(Cl)cc1)Nc1ccc2cc1OCCOCCNc1ccn3ncc-2c3n1` ?
[A] 0.1

(I) Cc1cc(Br)ccc1CNC(=O)Nc1ccc2cc1OCCOCCNc1ccn3ncc-2c3n1
(II) Cc1ccc(F)cc1CNC(=O)Nc1ccc2cc1OCCOCCNc1ccn3ncc-2c3n1
(III) O=C(NCc1ccc(C(F)(F)F)cc1)Nc1ccc2cc1OCCOCCNc1ccn3ncc-2c3n1
[Q] Hey, can you sort those molecules up there by ΔTm at 10 µM, smallest first? Put the labels in the requested order and write them down.
[A] II, I, III
(II: 0.3 °C, I: 0.6 °C, III: 1 °C)

----------
Target: VRK1A (Homo sapiens, UniProt Q99986)
Construct: purchased in-house DSF kinase panel (SGC-style construct names; the trailing letter is the construct ID)
Sequence (Q99986 whole entry): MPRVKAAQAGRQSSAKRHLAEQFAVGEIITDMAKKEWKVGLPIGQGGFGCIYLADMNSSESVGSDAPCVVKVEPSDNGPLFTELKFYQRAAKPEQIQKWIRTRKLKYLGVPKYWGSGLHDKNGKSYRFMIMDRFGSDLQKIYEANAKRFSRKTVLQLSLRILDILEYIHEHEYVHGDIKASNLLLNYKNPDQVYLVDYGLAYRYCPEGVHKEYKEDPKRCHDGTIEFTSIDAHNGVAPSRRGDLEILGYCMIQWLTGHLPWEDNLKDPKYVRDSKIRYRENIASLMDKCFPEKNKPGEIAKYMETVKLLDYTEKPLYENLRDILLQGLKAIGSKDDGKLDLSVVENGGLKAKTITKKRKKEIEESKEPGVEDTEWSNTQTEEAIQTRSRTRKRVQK
Assay: DSF Tm panel
Assay type: binding
Conditions: 10 μM compound
quantity name: ΔTm at 10 µM (°C)

Some entries whose results are on file:
[Q] Which ΔTm at 10 µM value is on record for Cc1cc(Cl)ccc1CNC(=O)Nc1ccc2cc1OCCOCCNc1ccn3ncc-2c3n1 [compound 23] ?
[A] 0.8

[Q] What do you get for O=C(NCc1ccc(C(F)(F)F)cc1)Nc1ccc2cc1OCCOCCNc1ccn3ncc-2c3n1 [compound 28] ?
[A] 0.6

[Q] What do you get for O=C(NCc1ccc(Cl)cc1F)Nc1ccc2cc1OCCOCCNc1ccn3ncc-2c3n1 [compound 21] ?
[A] 0.9

[Q] What do you get for CN1CCN(C(=O)Nc2ccc3cc2OCCOCCNc2ccn4ncc-3c4n2)CC1 [compound 35] ?
[A] -0.1

[Q] What do you get for O=C(NCc1ccc(Cl)cc1Cl)Nc1ccc2cc1OCCOCCNc1ccn3ncc-2c3n1 [compound 20] ?
[A] 0.4

(A) COc1ccccc1CNC(=O)Nc1ccc2cc1OCCOCCNc1ccn3ncc-2c3n1 [compound 29]
(B) COc1ccc(CNC(=O)Nc2ccc3cc2OCCOCCNc2ccn4ncc-3c4n2)cc1 [compound 31]
[Q] Could you kindly indicate whether A or B has the higher ΔTm at 10 µM value? When you have decided, please share the label of that item.
[A] B
(B: 0.2 °C, A: 0 °C)
